The reported measurements were obtained from paper PMC9736855.

Target: STK39 (Homo sapiens)
Construct: purchased in-house DSF panel (SGC Frankfurt)
Test: DSF
Format: binding
Protocol: Measurements were performed in duplicates.
Entry flag: MET if ΔTm STK39 reaches 8 °C; NOT MET if it does not.

Sample answers from the record:
N#CCc1ccc(Nc2nccc(Nc3cc(C4CC4)[nH]n3)n2)cc1 [compound 1, reference compound]	NOT MET
CC(C)(C)OC(=O)Nc1ccc(CNc2nccc(Nc3cc(C(=O)OC(C)(C)C)[nH]n3)n2)cc1 [43d]	NOT MET
COC(=O)c1cc(Nc2ccnc(NCCOCCNC(=O)OC(C)(C)C)n2)[nH]n1 [21d]	NOT MET

Lookup: // inclusive: ΔTm STK39 at least 8 °C? input: CC(C)OC(=O)c1cc(Nc2ccnc(NCc3ccc(NC(=O)OC(C)(C)C)cc3)n2)n[nH]1 [42d]
Found: NOT MET

Lookup: And COC(=O)c1cc(Nc2ccnc(NCc3ccc(NC(=O)OC(C)(C)C)cc3)n2)[nH]n1 [21i] ?
Found: NOT MET

Lookup: And CN[C@@H]1C[C@H]2O[C@@](C)([C@@H]1OC)n1c3ccccc3c3c4c(c5c6ccccc6n2c5c31)C(=O)NC4 [staurosporine, reference compound] ?
Found: MET
